Data provenance is patent US20220387487A1.

tested on: FMC63; assay: CD19 variant binding to anti-CD19 antibody FMC63 (score); details: Table 1B, CD19 triple mutants
Sequence (as listed by the source): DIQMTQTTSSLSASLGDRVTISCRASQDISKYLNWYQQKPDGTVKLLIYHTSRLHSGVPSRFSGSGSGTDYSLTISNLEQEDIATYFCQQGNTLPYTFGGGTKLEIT
Sequence (as listed by the source): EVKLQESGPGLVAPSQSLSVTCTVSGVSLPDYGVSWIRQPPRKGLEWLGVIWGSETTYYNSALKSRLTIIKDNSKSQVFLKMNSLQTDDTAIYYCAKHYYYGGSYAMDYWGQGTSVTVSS
measured property: FMC63 Binding Score

**Q:** For the molecule W62N/F64L/F66P: CD19 variant (protein) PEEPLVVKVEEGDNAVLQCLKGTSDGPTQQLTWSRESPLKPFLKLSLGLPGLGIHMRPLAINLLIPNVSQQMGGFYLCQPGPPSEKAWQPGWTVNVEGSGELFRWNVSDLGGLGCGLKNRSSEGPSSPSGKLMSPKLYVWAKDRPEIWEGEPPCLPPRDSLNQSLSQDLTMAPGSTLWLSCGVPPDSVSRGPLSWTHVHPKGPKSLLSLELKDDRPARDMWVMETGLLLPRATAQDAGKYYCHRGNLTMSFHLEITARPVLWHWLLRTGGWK , what FMC63 Binding Score is on record?
**A:** 15.6 ± 5.6

**Q:** For the molecule W62D/F64A/F66S: CD19 variant (protein) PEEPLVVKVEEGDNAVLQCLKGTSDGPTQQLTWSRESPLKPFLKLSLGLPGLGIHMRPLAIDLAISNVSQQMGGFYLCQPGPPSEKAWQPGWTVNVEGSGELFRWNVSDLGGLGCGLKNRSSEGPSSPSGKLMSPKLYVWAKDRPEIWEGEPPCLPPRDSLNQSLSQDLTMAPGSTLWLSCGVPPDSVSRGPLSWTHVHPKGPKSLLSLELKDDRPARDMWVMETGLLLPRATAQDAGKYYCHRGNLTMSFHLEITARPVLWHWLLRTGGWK , what FMC63 Binding Score is on record?
**A:** 15.5 ± 5.6

**Q:** For the molecule E224G/G226E/L228I: CD19 variant (protein) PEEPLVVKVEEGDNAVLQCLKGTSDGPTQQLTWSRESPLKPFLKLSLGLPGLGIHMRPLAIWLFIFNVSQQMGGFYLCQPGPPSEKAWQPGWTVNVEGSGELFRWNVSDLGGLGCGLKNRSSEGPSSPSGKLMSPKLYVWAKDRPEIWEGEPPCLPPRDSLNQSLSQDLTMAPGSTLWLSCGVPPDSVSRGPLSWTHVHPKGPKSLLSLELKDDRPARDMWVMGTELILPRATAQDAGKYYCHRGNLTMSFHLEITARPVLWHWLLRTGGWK , what FMC63 Binding Score is on record?
**A:** 14.3 ± 3.4

**Q:** For the molecule E224G/G226R/L228V: CD19 variant (protein) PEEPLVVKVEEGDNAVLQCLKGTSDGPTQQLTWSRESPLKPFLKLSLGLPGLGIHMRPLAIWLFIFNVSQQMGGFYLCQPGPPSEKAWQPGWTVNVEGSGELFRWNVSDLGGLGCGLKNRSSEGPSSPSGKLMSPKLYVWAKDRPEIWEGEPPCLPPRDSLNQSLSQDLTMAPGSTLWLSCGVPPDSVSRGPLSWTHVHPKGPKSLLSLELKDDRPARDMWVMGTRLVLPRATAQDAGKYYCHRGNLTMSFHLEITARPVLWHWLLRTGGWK , what FMC63 Binding Score is on record?
**A:** 11. ± .9
